// provenance: paper PMC10872856

Target sequence: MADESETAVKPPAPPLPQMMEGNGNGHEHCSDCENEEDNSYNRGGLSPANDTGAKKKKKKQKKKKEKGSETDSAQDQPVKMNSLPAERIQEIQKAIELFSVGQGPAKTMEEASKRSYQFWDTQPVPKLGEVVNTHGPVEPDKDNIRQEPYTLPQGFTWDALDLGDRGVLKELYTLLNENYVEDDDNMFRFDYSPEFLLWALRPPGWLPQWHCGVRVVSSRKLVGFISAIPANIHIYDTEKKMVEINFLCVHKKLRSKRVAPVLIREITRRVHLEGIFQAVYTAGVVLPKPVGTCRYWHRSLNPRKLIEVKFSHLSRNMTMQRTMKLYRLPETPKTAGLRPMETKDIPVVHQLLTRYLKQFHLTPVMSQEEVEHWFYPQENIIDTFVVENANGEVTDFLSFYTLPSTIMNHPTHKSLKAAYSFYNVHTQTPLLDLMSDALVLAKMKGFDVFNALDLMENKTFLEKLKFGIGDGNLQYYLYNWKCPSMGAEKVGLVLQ
resultType: IC50 (nM)

# testSmiles, resultType, outputUnit, reportedResult
records = [
    ("CCCCCCCCCCCCCCN[C@H](CO)[C@H](O)c1ccc([N+](=O)[O-])cc1", "IC50", "nM", 2300),
]
